- MEASURED TARGET: Progesterone receptor (Homo sapiens)
- EXPERIMENT: Antagonist activity at progesterone receptor expressed in T47D cells assessed as inhibition of progesterone-induced alkaline phosphatase activity
MEASUREMENT TYPE: IC50 (nM)
Just the number in nM, nothing appended.

Looking up CCC1(CC)OC(=O)N(C)c2ccc(Nc3ccc(F)c(F)c3)cc21 , I found its IC50 recorded as 27.4

Looking up CN1C(=O)OC(C)(C)c2cc(Nc3ccc(Br)cc3)ccc21 , I found its IC50 recorded as 54.4

Looking up CCC1(c2ccccc2)OC(=O)N(C)c2ccc(Nc3cccc(Cl)c3)cc21 (stereo not drawn) , I found its IC50 recorded as 66.1

---

Consider the following molecules; for each one, report its pIC50.
- MEASURED TARGET: Progesterone receptor (Homo sapiens)
- Sequence (P06401 whole entry): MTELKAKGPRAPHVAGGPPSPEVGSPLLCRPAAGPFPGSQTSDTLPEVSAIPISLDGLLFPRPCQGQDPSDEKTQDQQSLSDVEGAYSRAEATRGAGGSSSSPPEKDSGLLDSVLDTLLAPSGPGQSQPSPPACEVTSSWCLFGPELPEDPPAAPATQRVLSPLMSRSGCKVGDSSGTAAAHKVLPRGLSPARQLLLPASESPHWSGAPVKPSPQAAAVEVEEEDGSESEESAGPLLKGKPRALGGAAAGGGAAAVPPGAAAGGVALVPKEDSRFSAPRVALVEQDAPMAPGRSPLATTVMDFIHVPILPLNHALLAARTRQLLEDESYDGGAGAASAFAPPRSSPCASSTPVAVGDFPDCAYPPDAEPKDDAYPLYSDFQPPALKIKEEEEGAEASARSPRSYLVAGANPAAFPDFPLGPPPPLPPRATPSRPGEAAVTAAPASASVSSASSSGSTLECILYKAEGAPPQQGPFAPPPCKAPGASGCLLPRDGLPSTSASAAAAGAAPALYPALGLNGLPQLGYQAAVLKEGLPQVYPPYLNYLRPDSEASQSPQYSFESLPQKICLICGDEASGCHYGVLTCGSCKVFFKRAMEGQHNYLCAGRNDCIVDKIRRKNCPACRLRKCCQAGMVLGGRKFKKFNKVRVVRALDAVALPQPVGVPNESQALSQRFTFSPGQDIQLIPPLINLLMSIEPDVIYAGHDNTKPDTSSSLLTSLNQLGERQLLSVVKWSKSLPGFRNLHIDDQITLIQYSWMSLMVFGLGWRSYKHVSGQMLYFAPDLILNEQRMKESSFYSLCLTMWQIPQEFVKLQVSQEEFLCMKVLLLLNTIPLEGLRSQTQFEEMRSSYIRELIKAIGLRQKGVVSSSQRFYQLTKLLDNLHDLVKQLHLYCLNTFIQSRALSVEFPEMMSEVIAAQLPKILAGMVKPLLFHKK
- EXPERIMENT: Antagonist activity at progesterone receptor expressed in T47D cells assessed as inhibition of progesterone-induced alkaline phosphatase activity
# pIC50 = -log10(concentration in molar units)

Looking up CC(C)N1C(=O)OC(C)(C)c2cc(Nc3ccc(Br)cc3)ccc21 , I found its pIC50 recorded as 6.00

Looking up CCC1(c2ccc(Cl)cc2)OC(=O)N(C)c2ccc(Nc3cccc(Cl)c3)cc21 (stereo not given) , I found its pIC50 recorded as 7.14

Looking up CN1C(=O)OC(C)(C)c2cc(Nc3cccc(Cl)c3Cl)ccc21 , I found its pIC50 recorded as 7.25

Looking up CN1C(=O)OC(c2ccc(Cl)cc2)(c2ccc(Cl)cc2)c2cc(Nc3cccc(Cl)c3)ccc21 , I found its pIC50 recorded as 6.00

Looking up CCC1(CC)OC(=O)N(C)c2ccc(Nc3cc(F)cc([N+](=O)[O-])c3)cc21 , I found its pIC50 recorded as 8.08

Looking up CCC1(CC)OC(=O)N(C)c2ccc(Nc3ccc(F)c(Cl)c3)cc21 , I found its pIC50 recorded as 8.05

Looking up CN1C(=O)OC(C)(C)c2cc(Nc3ccc(Cl)c(Cl)c3)ccc21 , I found its pIC50 recorded as 7.00

Looking up CC1(C)OC(=O)Nc2ccc(Nc3cccc(Cl)c3Cl)cc21 , I found its pIC50 recorded as 6.69

Looking up CC1(C)OC(=O)N(Cc2ccccc2)c2ccc(Nc3ccc(Br)cc3)cc21 , I found its pIC50 recorded as 5.52

Looking up CCC1(CC)OC(=S)N(C)c2ccc(Nc3ccc(F)c(F)c3)cc21 , I found its pIC50 recorded as 7.37

---

- MEASURED TARGET: Progesterone receptor (Homo sapiens, UniProt P06401)
- Sequence (P06401 whole entry): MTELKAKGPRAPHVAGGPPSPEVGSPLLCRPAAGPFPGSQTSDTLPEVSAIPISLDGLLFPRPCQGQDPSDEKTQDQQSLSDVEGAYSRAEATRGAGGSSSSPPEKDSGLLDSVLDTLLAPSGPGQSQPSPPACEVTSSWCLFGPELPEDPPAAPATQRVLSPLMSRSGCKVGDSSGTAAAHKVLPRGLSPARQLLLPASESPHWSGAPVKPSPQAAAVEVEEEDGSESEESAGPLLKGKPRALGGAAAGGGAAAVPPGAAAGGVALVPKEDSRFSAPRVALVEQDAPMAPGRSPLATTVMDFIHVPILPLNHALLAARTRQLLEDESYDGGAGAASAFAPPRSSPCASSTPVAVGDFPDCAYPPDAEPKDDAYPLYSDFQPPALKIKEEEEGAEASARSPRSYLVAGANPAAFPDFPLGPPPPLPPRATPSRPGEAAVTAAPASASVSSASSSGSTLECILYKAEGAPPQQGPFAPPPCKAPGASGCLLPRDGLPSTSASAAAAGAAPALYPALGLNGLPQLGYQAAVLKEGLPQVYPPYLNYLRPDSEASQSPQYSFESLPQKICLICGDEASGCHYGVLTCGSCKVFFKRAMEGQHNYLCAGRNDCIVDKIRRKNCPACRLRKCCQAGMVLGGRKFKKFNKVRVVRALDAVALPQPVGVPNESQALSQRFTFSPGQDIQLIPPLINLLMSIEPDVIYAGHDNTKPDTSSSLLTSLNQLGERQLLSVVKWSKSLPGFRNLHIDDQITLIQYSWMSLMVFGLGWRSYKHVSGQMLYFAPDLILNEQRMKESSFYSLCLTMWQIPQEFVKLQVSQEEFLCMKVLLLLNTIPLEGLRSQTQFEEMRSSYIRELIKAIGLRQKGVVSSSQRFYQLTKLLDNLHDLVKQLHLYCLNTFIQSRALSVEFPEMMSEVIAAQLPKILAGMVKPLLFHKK
- EXPERIMENT: Antagonist activity at progesterone receptor expressed in T47D cells assessed as inhibition of progesterone-induced alkaline phosphatase activity
Lab note: cut-off is 10 nM. Strictly less in IC50 is Fulfilled. Exactly 10 nM or more is Not fulfilled.

stdin: Determine whether this compound shows IC50 lower than 10 nM (ties excluded): CCC1(CC)OC(=O)N(C)c2ccc(Nc3ccc(Cl)c(Cl)c3)cc21
stdout: Not fulfilled

stdin: Determine whether this compound shows IC50 lower than 10 nM (ties excluded): CCC1(CC)OC(=O)N(C)c2ccc(Nc3cc(Cl)cc(Cl)c3)cc21
stdout: Fulfilled

stdin: Determine whether this compound shows IC50 lower than 10 nM (ties excluded): CCC1(c2cccs2)OC(=O)N(C)c2ccc(Nc3cccc(Cl)c3)cc21 (stereo unspecified)
stdout: Not fulfilled

stdin: Determine whether this compound shows IC50 lower than 10 nM (ties excluded): CCC1(CC)OC(=O)N(C)c2ccc(Nc3cccc(Cl)c3)cc21
stdout: Not fulfilled

stdin: Determine whether this compound shows IC50 lower than 10 nM (ties excluded): CCC1(CC)OC(=O)N(C)c2ccc(Nc3ccc(F)c(C#N)c3)cc21
stdout: Fulfilled

stdin: Determine whether this compound shows IC50 lower than 10 nM (ties excluded): CCC1(CC)OC(=O)N(C)c2ccc(Nc3ccc(C#N)c(F)c3)cc21
stdout: Not fulfilled

stdin: Determine whether this compound shows IC50 lower than 10 nM (ties excluded): CCN1C(=O)OC(C)(C)c2cc(Nc3ccc(Br)cc3)ccc21
stdout: Not fulfilled

stdin: Determine whether this compound shows IC50 lower than 10 nM (ties excluded): CCC1(CC)OC(=O)N(C)c2ccc(Nc3cccc(Cl)c3Cl)cc21
stdout: Fulfilled

stdin: Determine whether this compound shows IC50 lower than 10 nM (ties excluded): CN1C(=S)OC(C)(C)c2cc(Nc3ccc(Br)cc3)ccc21
stdout: Not fulfilled

stdin: Determine whether this compound shows IC50 lower than 10 nM (ties excluded): CC1(C)OC(=O)N(c2ccccc2)c2ccc(Nc3ccc(Br)cc3)cc21
stdout: Not fulfilled

stdin: Determine whether this compound shows IC50 lower than 10 nM (ties excluded): CCC1(CC)OC(=O)N(C)c2ccc(Nc3cc(F)cc(C#N)c3)cc21
stdout: Not fulfilled
